Assayed Target: huPD-L1 (Homo sapiens, UniProt Q9NZQ7)
Sequence (Q9NZQ7 19-290): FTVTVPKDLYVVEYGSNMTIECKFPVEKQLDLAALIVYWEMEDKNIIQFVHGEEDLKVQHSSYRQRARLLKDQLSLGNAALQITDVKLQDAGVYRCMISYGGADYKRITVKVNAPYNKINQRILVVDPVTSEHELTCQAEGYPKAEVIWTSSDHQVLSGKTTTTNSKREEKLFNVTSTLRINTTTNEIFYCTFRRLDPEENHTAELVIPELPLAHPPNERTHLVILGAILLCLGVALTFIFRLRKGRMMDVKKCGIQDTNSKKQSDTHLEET
Assay Summary: Flow binding to CHO cells stably expressing PD-L1
Design: huCTLA4 and huPD-L1, full-length mammalian surface expression constructs were generated; expressed in transfected cells; host or cells: CHO cells, lentiviral transduction, sorted to >98% purity
Condition Details: Table E20; ratio of MFI at 33.3 nM
Task for the reader: assign each of the following molecules its reported Ratio of PDL1:CD28.

Field: example entries. Status: answers known.
H18Y/A26E/M47L/A71G (protein) VIHVTKEVKEVATLSCGYNVSVEELEQTRIYWQKEKKMVLTMMSGDLNIWPEYKNRTIFDITNNLSIVILGLRPSDEGTYECVVLKYEKDAFKREHLAEVTLSVKAD : 25.5
H18Y/A26E/E35D/M47L (protein) VIHVTKEVKEVATLSCGYNVSVEELEQTRIYWQKDKKMVLTMMSGDLNIWPEYKNRTIFDITNNLSIVILALRPSDEGTYECVVLKYEKDAFKREHLAEVTLSVKAD : 30.7
H18Y/E35D/A71G/D90G (protein) VIHVTKEVKEVATLSCGYNVSVEELAQTRIYWQKDKKMVLTMMSGDMNIWPEYKNRTIFDITNNLSIVILGLRPSDEGTYECVVLKYEKGAFKREHLAEVTLSVKAD : 6.5

Lab note: next molecule to report on.
molecule H18Y/M47L/V68M/D90G (protein) VIHVTKEVKEVATLSCGYNVSVEELAQTRIYWQKEKKMVLTMMSGDLNIWPEYKNRTIFDITNNLSIMILALRPSDEGTYECVVLKYEKGAFKREHLAEVTLSVKAD , Ratio of PDL1:CD28 observed: 5.7

Data origin: patent US20220177587A1
